# protocol_text: Cmax value in rats at 10 mg/kg
# Format: ADME, organism-based
# Parameters: dose 10 mg/kg
# condition_details: rat, in vivo
reported_property: Cmax (ng/mL)
One number for each entry, in ng/mL.

## Task Would you kindly share the measured Cmax for "Cn1cc(CC[C@H](CO)n2cnc(C(N)=O)c2)c2cc(OCCCc3ccc(Cl)cc3)ccc21" ?
## Result 210

###

# protocol_text: AUC 0-8 hr value in rats at 10 mg/kg
# Type: ADME, organism-based
# Parameters: time < 8 hr, dose 10 mg/kg
# condition_details: rat, plasma
reported_property: AUC(0-t) at 8 h

## Task Would you kindly share the measured AUC(0-t) at 8 h for "Cn1cc(CC[C@H](CO)n2cnc(C(N)=O)c2)c2cc(OCCCc3ccc(Cl)cc3)ccc21" ?
## Result 260 ng·h/mL
